Target: human GLP-1 receptor (human, UniProt P43220 24-463)
Sequence (P43220 24-463): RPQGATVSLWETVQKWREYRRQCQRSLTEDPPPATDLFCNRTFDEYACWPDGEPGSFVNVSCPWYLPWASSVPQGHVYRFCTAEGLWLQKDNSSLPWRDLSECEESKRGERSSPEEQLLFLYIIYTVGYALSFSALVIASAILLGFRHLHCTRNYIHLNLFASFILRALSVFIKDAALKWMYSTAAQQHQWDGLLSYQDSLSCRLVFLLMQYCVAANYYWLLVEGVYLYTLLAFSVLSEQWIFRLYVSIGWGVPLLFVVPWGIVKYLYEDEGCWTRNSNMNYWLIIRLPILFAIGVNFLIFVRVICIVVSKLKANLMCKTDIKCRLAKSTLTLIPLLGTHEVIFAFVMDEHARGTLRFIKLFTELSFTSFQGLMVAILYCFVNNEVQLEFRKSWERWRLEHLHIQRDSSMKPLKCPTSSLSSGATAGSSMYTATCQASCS
Assay: cell-based or functional assay
Starred links: 1 amine or outer side, 2 acyl side, 3 side chain; linkers in the order of their positions; H or OH if unused. Non-standard residues stand in square brackets, D forms with d. No end group written: not given here. 2,4‑diF‑APPA = 2-amino-5-(2,4-difluorophenyl)pentanoic acid, O=C([C@H](CCCc1ccc(F)cc1F)N[*:1])[*:2]; ACPP = 2-amino-5-(3-chlorophenyl)pentanoic acid, O=C([C@H](CCCc1cccc(Cl)c1)N[*:1])[*:2]; 2CF3‑APPA = 2-amino-5-(2-(trifluoromethyl)phenyl)pentanoic acid; Bip(2'-Et-4'-OMe) = CCc1cc(OC)ccc1-c1ccc(C[C@H](N)C(=O)O)cc1; Leu(5,5,5,5',5',5'-F6) = N[C@@H](CC(C(F)(F)F)C(F)(F)F)C(=O)O; Nva(5-(3,5-Me2Ph)) = Cc1cc(C)cc(CCC[C@H](N)C(=O)O)c1; 2Cl‑APPA = 2-amino-5-(2-chlorophenyl)pentanoic acid; 2F‑APPA = 2-amino-5-(2-fluorophenyl)pentanoic acid; αMePhe(2-F) = C[C@](N)(Cc1ccccc1F)C(=O)O; hhPhe = N[C@@H](CCCc1ccccc1)C(=O)O; NMeD = CN[C@@H](CC(=O)O)C(=O)O; aThr = C[C@H](O)[C@H](N)C(=O)O; NMeAPPA = not defined here; CNB = not defined here; Aib = CC(C)(N)C(=O)O
recorded-endpoint: cAMP release, % activity, 10 µM (%)
Please reply with the bare figure in % and do not write the unit itself.

As a guide, the following entries are already answered.
For reference, reported cAMP release, % activity, 10 µM for H[Aib][CNB]G[aThr][αMePhe(2-F)][aThr]SD[Bip(2'-Et-4'-OMe)][NMeAPPA] (reading uncertain) [Seq. ID. No. 130: H-Aib-(CNB)-G-T(allo)-(α-Me-2F-Phe)-T(allo)-SD-Bip(OMe)-((NMe)(APPA))] stands at 99

Entry H[Aib][CNB]GTFTSD[Bip(2'-Et-4'-OMe)][2CF3‑APPA] (reading uncertain) [Seq. ID. No. 79: H-Aib-(CNB)-GTFTSD-Bip(OMe)-(2CF3-APPA)] — recorded cAMP release, % activity, 10 µM = 99

H[Aib][CNB]G[aThr][αMePhe(2-F)]TSD[Bip(2'-Et-4'-OMe)][2F‑APPA] (reading uncertain) [Seq. ID. No. 112: H-Aib-(CNB)-G-T(allo)-(α-Me-2F-Phe)-TSD-Bip(OMe)-(2F-APPA)] has a reported cAMP release, % activity, 10 µM of 99

cAMP release, % activity, 10 µM reading for H[Aib][CNB]G[aThr][αMePhe(2-F)][aThr]SD[Bip(2'-Et-4'-OMe)][hhPhe] (reading uncertain) [Seq. ID. No. 114: H-Aib-(CNB)-G-T(allo)-(α-Me-2F-Phe)-T(allo)-SD-Bip(OMe)-(APPA)] : 99

Reported cAMP release, % activity, 10 µM ( Ac-H[Aib][CNB]GT[αMePhe(2-F)]TSD[Bip(2'-Et-4'-OMe)][2F‑APPA] (reading uncertain) [Seq. ID. No. 207: CH3CO-H-Aib-(CNB)-GT-(α-Me-2F-Phe)-TSD-Bip(OMe)-(2F-APPA)] ) = 99

// H[Aib]QGTFTSD[Bip(2'-Et-4'-OMe)][2,4‑diF‑APPA] [Seq. ID. No. 62: H-Aib-QGTFTSD-Bip(OMe)-(2,4-diF-APPA)] : cAMP release, % activity, 10 µM value = 98

Looking up H[Aib][Leu(5,5,5,5',5',5'-F6)]G[aThr][αMePhe(2-F)][aThr]S[NMeD][NMeBip(OMe)][NMeAPPA] (reading uncertain) [Seq. ID. No. 220: H-Aib-(Hfl)-G-T(allo)-(α-Me-2F-Phe)-T(allo)-S-(NMe)D-((NMe)Bip(OMe))-((NMe)(APPA))] , I see its cAMP release, % activity, 10 µM listed as 99

H[Aib][Leu(5,5,5,5',5',5'-F6)]GT[αMePhe(2-F)]TSD[Bip(2'-Et-4'-OMe)][Nva(5-(3,5-Me2Ph))] [Seq. ID. No. 235: H-Aib-(Hfl)-GT-(α-Me-2F-Phe)-TSD-Bip(OMe)-(ADMP)] has a reported cAMP release, % activity, 10 µM of 99

Per the records, this binder ( H[Aib]QGT[αMePhe(2-F)]TSD[Bip(2'-Et-4'-OMe)][ACPP] [Seq. ID. No. 39: H-Aib-QGT-(α-Me-2F-Phe)-TSD-Bip(OMe)-(ACPP)] ) has cAMP release, % activity, 10 µM equal to 98

Proceeding to the next binder to report its cAMP release, % activity, 10 µM.
Kindly note the recorded cAMP release, % activity, 10 µM for H[Aib][CNB]GTFTSD[Bip(2'-Et-4'-OMe)][2Cl‑APPA] (reading uncertain) [Seq. ID. No. 82: H-Aib-(CNB)-GTFTSD-Bip(OMe)-(2Cl-APPA)] , which is 99
